target: T1, human epidermal growth factor receptor (EGFR) (human, UniProt P00533 25-1210); experiment: flow cytometry on A431 cells, light chain paired with I-HHD
T1 construct: whole, on cells; also called HER-1; ErbB1

>  <Binder>
humanized ICR62 antibody I-HHD/I-KC2 (antibody, human IgG1, V domains shown) VH: QVQLVQSGAEVKKPGSSVKVSCKASGFTFTDYKIHWVRQAPGQGLEWMGYFNPNSGYSTYAQKFQGRVTITADKSTSTAYMELSSLRSEDTAVYYCARLSPGGYYVMDAWGQGTTVTVSS VL: DIQMTQSPSSLSASVGDRVTITCRASQGINNWLNWYQQKPGKAPKRLIYNTNNLQTGVPSRFSGSGSGTEFTLTISSLQPEDFATYYCLQHNSFPTFGQGTKLEIKR

>  <binding result>
binds

$$$$

Source listed as patent US20080286277A1.
